- Test system: K-562 leukemia
- Test Description: NCI-60 one-dose screen, 48 h
- Recorded Conditions: 10 µM unless noted
About 83,000 compounds went through this panel and 20% of them were active in at least one assay; those are over-represented in the sample as a whole. Calls of active or inactive are those of the source. Rule for the calls: active = growth percent below 10; inactive = the rest.
Outcome codes: active, inactive

> print(dat)
                                   compound  assayed.system  class.label
1  C/C=C(\C)C(=O)N[C@H]1[C@@H](OC(C)=O)C[C@]2(C)C3CC[C@@]4(C)C(CC[C@@H]4C(C)N(C)C)C3CCC2[C@H]1O (stereo partly drawn)  K-562 leukemia     inactive
2  COc1cccc2c(=O)c3c(sc12)c(NCCCN)nc1ccccc13  K-562 leukemia       active
3  COc1cccc(-c2nc(-c3ccc(NC(=O)OC(C)C)cc3)[nH]c2-c2ccnc(Br)c2)c1  K-562 leukemia       active
